Attribution: patent US20240010750A1

# subject of test: T1, human alpha2-Antiplasmin (human, UniProt P08697 40-491)
# T1 sequence: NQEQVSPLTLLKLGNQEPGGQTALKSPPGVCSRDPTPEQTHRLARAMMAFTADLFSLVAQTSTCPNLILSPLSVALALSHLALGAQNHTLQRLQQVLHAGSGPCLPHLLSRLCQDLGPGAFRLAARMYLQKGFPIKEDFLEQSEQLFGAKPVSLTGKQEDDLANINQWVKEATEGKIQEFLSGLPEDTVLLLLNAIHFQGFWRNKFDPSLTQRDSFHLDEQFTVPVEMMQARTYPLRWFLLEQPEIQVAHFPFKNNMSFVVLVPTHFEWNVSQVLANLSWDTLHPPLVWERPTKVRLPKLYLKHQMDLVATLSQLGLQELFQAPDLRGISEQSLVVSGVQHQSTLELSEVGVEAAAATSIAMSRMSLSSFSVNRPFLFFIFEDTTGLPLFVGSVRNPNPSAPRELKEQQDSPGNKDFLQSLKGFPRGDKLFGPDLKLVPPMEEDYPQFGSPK
# measurement notes: cell-based or functional assay
Measured IC50, A2AP function blocking assay (Example 10), listed per entry for reference.
Report the figure in nM without appending any unit label.

# binder, observed
records = [
    ("TPP-17045 hIgG1 (antibody, V domains shown, Germline variant of TPP-14308) VH: EVQLLESGGGLVQPGGSLRLSCAASGFTFDDYAMSWVRQAPGKGLEWVSAIGTGGGTYYADSVKGRFTISRDNSKNTLYLQMNSLRAEDTAVYYCAKEGYDSSGYYHLDYWGQGTLVTVSS VL: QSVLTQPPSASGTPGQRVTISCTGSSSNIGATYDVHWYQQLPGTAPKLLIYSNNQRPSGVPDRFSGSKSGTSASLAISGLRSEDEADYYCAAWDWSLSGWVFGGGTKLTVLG", 0.14),
    ("TPP-17051 hIgG1 (antibody, V domains shown, Germline variant of TPP-14308) VH: EVQLLESGGGLVQPGGSLRLSCAASGFTFDSYAMSWVRQAPGKGLEWVSAIGTGGSTYYADSVKGRFTISRDNSKNTLYLQMNSLRAEDTAVYYCAREGYDSSGYYHLDYWGQGTLVTVSS VL: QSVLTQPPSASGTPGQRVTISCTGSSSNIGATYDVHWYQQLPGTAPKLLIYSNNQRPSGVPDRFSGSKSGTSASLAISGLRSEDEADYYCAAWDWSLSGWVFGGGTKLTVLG", 0.33),
    ("TPP-17041 hIgG1 (antibody, V domains shown, Germline variant of TPP-14308) VH: EVQLLESGGGLVQPGGSLRLSCAASGFTFSDYAMSWVRQAPGKGLEWVSAIGTGGGTYYADSVKGRFTISRDNSKNTLYLQMNSLRAEDTAVYYCAREGYDSSGYYHLDYWGQGTLVTVSS VL: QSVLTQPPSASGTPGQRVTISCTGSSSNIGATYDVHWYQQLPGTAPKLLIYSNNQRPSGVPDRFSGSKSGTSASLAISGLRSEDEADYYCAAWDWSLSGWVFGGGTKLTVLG", 0.64),
]

Assign IC50, A2AP function blocking assay (Example 10) to the following record: TPP-17048 hIgG1 (antibody, V domains shown, Germline variant of TPP-14308) VH: EVQLLESGGGLVQPGGSLRLSCAASGFTFSDYAMSWVRQAPGKGLEWVSAIGTGGSTYYADSVKGRFTISRDNSKNTLYLQMNSLRAEDTAVYYCAREGYDSSGYYHLDYWGQGTLVTVSS VL: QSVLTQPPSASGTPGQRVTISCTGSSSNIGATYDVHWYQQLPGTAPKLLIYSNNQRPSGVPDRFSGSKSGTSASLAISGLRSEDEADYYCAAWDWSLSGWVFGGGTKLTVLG 1.2
